Every entry's value here was drawn from the kinase profiling compilation of Christmann-Franck et al. (2016).

- EXPERIMENTAL_SYSTEM: NEK6 (human)
- MEASUREMENT_PROTOCOL: KINOMEscan competition binding
- CONDITION_SET: compound 10.0 µM
Each entry below lists one item and its recorded kinase still bound, per cent of control value.
RESULT_TYPE: kinase still bound, per cent of control (%)

INSERT INTO assay_data (structure_string, test_result) VALUES
  ('O=C1NC(=S)S/C1=C\c1ccc(-c2cccc3ccccc23)o1', 26),
  ('COc1cc(N2CCN(C)CC2)ccc1Nc1ncc2c(n1)N(C)c1sccc1C(=O)N2C', 35),
  ('N=C1NC(=O)/C(=C/c2ccc(-c3csc4ccccc34)o2)S1', 25),
  ('O=C1NC(=S)S/C1=C\c1ccc(-c2cncc3ccccc23)o1', 24),
  ('COc1cc(N2CCN(C)CC2)ccc1Nc1ncc2c(n1)Nc1ccccc1NC2=O', 99),
  ('N=C1NC(=O)/C(=C/c2ccc(-c3cncc4ccccc34)o2)S1', 31),
  ('COc1cc(N2CCC(O)CC2)ccc1Nc1ncc2c(n1)N1CCc3cccc(c31)C(=O)N2C', 30),
  ('CN1C(=O)c2ccccc2N(C)c2nc(NS(=O)(=O)c3ccc(N)cc3)ncc21', 100),
  ('CN1C(=O)c2ccccc2N(C)c2nc(Nc3ccc(N4CCC(O)CC4)cc3)ncc21', 96),
  ('COc1cc(N2CCN(C)CC2)ccc1Nc1ncc2c(n1)N(C)c1ccccc1N(C)C2=O', 100),
  ('O=C1NC(=O)/C(=C/c2c[nH]c(=O)c(-c3ccc(N4CCNCC4)nc3)c2)S1', 100),
  ('CN1CCN(c2ccc(C(=O)Nc3ncc4c(n3)N(C)c3ccccc3C(=O)N4C)cc2)CC1', 100);

====

Each entry below lists one item and its recorded kinase still bound, per cent of control value.
- EXPERIMENTAL_SYSTEM: RIOK2 (human)
- MEASUREMENT_PROTOCOL: KINOMEscan competition binding
- CONDITION_SET: compound 10.0 µM
RESULT_TYPE: kinase still bound, per cent of control (%)

INSERT INTO results (structure_string, test_result) VALUES
  ('COc1cc(N2CCN(C)CC2)ccc1Nc1ncc2c(n1)N(C)c1ccccc1N(C)C2=O', 50),
  ('N=C1NC(=O)/C(=C/c2ccc(-c3ccc(C(=O)Nc4ccc(N5CCNCC5)cc4)cc3O)o2)S1', 29),
  ('COc1cc(N2CCN(C)CC2)ccc1Nc1ncc2c(n1)N(C)c1sccc1C(=O)N2C', 100),
  ('CN1CCN(c2ccc(C(=O)Nc3ncc4c(n3)N(C)c3ccccc3C(=O)N4C)cc2)CC1', 85),
  ('O=C1NC(=S)S/C1=C\c1ccc(-c2cncc3ccccc23)o1', 3.4);

====

Each entry below lists one item and its recorded kinase still bound, per cent of control value.
- EXPERIMENTAL_SYSTEM: RIPK4 (human)
- MEASUREMENT_PROTOCOL: KINOMEscan competition binding
- CONDITION_SET: compound 10.0 µM
RESULT_TYPE: kinase still bound, per cent of control (%)

INSERT INTO results (structure_string, test_result) VALUES
  ('CN1C(=O)c2ccccc2N(C)c2nc(NS(=O)(=O)c3ccc(N)cc3)ncc21', 89),
  ('N=C1NC(=O)/C(=C/c2ccc(-c3ccccc3O)o2)S1', 5.2),
  ('CSC1=NC(=O)/C(=C/c2c[nH]c(=O)c(-c3ccc(NS(C)(=O)=O)cc3)c2)S1', 8.4),
  ('N=C1NC(=O)/C(=C/c2ccc(-c3ccc(C(N)=O)cc3O)o2)S1', 7.9),
  ('N=C1NC(=O)/C(=C/c2ccc(-c3cncc4ccccc34)o2)S1', 4.7);

====

- EXPERIMENTAL_SYSTEM: GSK3B (human)
- MEASUREMENT_PROTOCOL: KINOMEscan competition binding
- CONDITION_SET: compound 10.0 µM
RESULT_TYPE: kinase still bound, per cent of control (%)

INSERT INTO measurements (structure_string, test_result) VALUES
  ('O=C1NC(=O)/C(=C/c2c[nH]c(=O)c(-c3ccc(N4CCNCC4)nc3)c2)S1', 53),
  ('N=C1NC(=O)/C(=C/c2ccc(-c3ccc(F)cc3)o2)S1', 30),
  ('CN1C(=O)c2ccccc2N(C)c2nc(NS(=O)(=O)c3ccc(N)cc3)ncc21', 94),
  ('COc1cc(N2CCN(C)CC2)ccc1Nc1ncc2c(n1)N(C)c1ccccc1N(C)C2=O', 82),
  ('N=C1NC(=O)/C(=C/c2ccc(-c3ccc4c(C(=O)Nc5ccc(N6CCNCC6)cc5)cccc4c3)o2)S1', 34),
  ('CN1CCN(c2ccc(C(=O)Nc3ncc4c(n3)N(C)c3ccccc3C(=O)N4C)cc2)CC1', 79),
  ('N=C1NC(=O)/C(=C/c2ccc(-c3csc4ccccc34)o2)S1', 12),
  ('COc1cc(N2CCN(C)CC2)ccc1Nc1ncc2c(n1)Nc1ccccc1NC2=O', 53),
  ('CN1C(=O)c2ccccc2N(C)c2nc(Nc3ccc(N4CCC(O)CC4)cc3)ncc21', 88),
  ('COc1cc(N2CCC(O)CC2)ccc1Nc1ncc2c(n1)N1CCc3cccc(c31)C(=O)N2C', 91),
  ('COc1cc(N2CCN(C)CC2)ccc1Nc1ncc2c(n1)N(C)c1sccc1C(=O)N2C', 97);

====

- EXPERIMENTAL_SYSTEM: PLK4 (human)
- MEASUREMENT_PROTOCOL: KINOMEscan competition binding
- CONDITION_SET: compound 10.0 µM
Each entry below lists one item and its recorded kinase still bound, per cent of control value.
RESULT_TYPE: kinase still bound, per cent of control (%)

INSERT INTO results (molecule, result_type, result_unit, test_result) VALUES
  ('CCN1CCN(Cc2cc(NC(=O)c3cccc4cc(-c5ccc(/C=C6\SC(=O)NC6=O)o5)ccc34)cc(C(F)(F)F)c2)CC1', 'kinase still bound, per cent of control', '%', 33),
  ('COc1cc(C(=O)NC2CCN(C)CC2)ccc1Nc1ncc2c(n1)N(C1CCC(O)CC1)CCC(=O)N2C (stereo not given)', 'kinase still bound, per cent of control', '%', 8),
  ('NS(=O)(=O)c1ccc(-c2ccc(/C=C3\SC(=O)NC3=O)o2)cc1', 'kinase still bound, per cent of control', '%', 21),
  ('O=C1NC(=S)S/C1=C\c1ccc(-c2cccc3ccccc23)o1', 'kinase still bound, per cent of control', '%', 1.6),
  ('CN1C(=O)CCN(C2CCCC2)c2nc(Nc3ccc(N4CCC(O)CC4)cn3)ncc21', 'kinase still bound, per cent of control', '%', 16);

====

- EXPERIMENTAL_SYSTEM: CLK3 (human)
- MEASUREMENT_PROTOCOL: KINOMEscan competition binding
- CONDITION_SET: compound 10.0 µM
Threshold check on kinase still bound, per cent of control: strictly below 10% is condition met; on or above 10% is condition not met.

INSERT INTO results (structure_string, assigned_category) VALUES
  ('CN1C(=O)c2ccccc2N(C)c2nc(NS(=O)(=O)c3ccc(N)cc3)ncc21', 'condition not met'),
  ('COc1cc(N2CCN(C)CC2)ccc1Nc1ncc2c(n1)N(C)c1sccc1C(=O)N2C', 'condition not met'),
  ('COc1cc(N2CCN(C)CC2)ccc1Nc1ncc2c(n1)Nc1ccccc1NC2=O', 'condition not met'),
  ('O=C1NC(=O)/C(=C/c2c[nH]c(=O)c(-c3ccc(N4CCNCC4)nc3)c2)S1', 'condition met'),
  ('N=C1NC(=O)/C(=C/c2ccc(-c3ccc(F)cc3O)o2)S1', 'condition not met'),
  ('N=C1NC(=O)/C(=C/c2ccc(-c3ccccc3O)o2)S1', 'condition not met'),
  ('N=C1NC(=O)/C(=C/c2ccc(-c3ccc(C(=O)Nc4ccc(N5CCNCC5)cc4)cc3O)o2)S1', 'condition not met'),
  ('CS(=O)(=O)Nc1ccc(-c2cc(/C=C3\SC(=N)NC3=O)c[nH]c2=O)cc1', 'condition met');

====

Each entry below lists one item and its recorded kinase still bound, per cent of control value.
- EXPERIMENTAL_SYSTEM: MERTK (human)
- MEASUREMENT_PROTOCOL: KINOMEscan competition binding
- CONDITION_SET: compound 10.0 µM
RESULT_TYPE: kinase still bound, per cent of control (%)

INSERT INTO results (compound, result_unit, test_result) VALUES
  ('COc1cc(N2CCN(C)CC2)ccc1Nc1ncc2c(n1)N(C1CCCC1)C(C)CC(=O)N2 (stereo not drawn)', '%', 23),
  ('COc1cc(N2CCC(O)CC2)ccc1Nc1ncc2c(n1)N1CCc3cccc(c31)C(=O)N2C', '%', 100),
  ('COc1cc(N2CCN(C)CC2)ccc1Nc1ncc2c(n1)N(C)c1ccccc1N(C)C2=O', '%', 100),
  ('COc1cc(N2CCN(C)CC2)ccc1Nc1ncc2c(n1)N(C)c1sccc1C(=O)N2C', '%', 100),
  ('CN1C(=O)[C@H]2CCC[C@H]2N(C2CCCC2)c2nc(Nc3ccc(C(N)=O)cc3)ncc21', '%', 6.8),
  ('CN1C(=O)c2ccccc2N(C)c2nc(NS(=O)(=O)c3ccc(N)cc3)ncc21', '%', 82),
  ('O=C1NC(=S)S/C1=C\c1ccc(-c2cccc3ccccc23)o1', '%', 20),
  ('COc1cc(C(=O)NC2CCN(C)CC2)ccc1Nc1ncc2c(n1)N(C1CCCC1)CCC(=O)N2C(C)C', '%', 34),
  ('O=C1NC(=O)/C(=C/c2c[nH]c(=O)c(-c3ccc(N4CCNCC4)nc3)c2)S1', '%', 83),
  ('CN1CCN(c2ccc(C(=O)Nc3ncc4c(n3)N(C)c3ccccc3C(=O)N4C)cc2)CC1', '%', 100),
  ('CN1C(=O)[C@H]2CCC[C@H]2N(C2CCCC2)c2nc(Nc3ccc4ncccc4c3)ncc21', '%', 28),
  ('COc1cc(N2CCN(C)CC2)ccc1Nc1ncc2c(n1)Nc1ccccc1NC2=O', '%', 80),
  ('CN1C(=O)c2ccccc2N(C)c2nc(Nc3ccc(N4CCC(O)CC4)cc3)ncc21', '%', 100);
